These measurements were taken from ChEMBL document CHEMBL5620397.

Biological target: Triple specificity protein phosphatase PtpB (Mycobacterium tuberculosis (strain ATCC 25618 / H37Rv))
Assay: Inhibition of Mycobacterium tuberculosis H37Rv ptpB expressed in Escherichia coli BL21(DE3) at 50 uM using pNPP as substrate preincubated for 10 mins followed by substrate addition and measured for 5 mins by spectrophotometer analysis relative to control
Conditions: time 15.0 min
Entries and their inhibition

INSERT INTO assay_data (structure_as_smiles, measurement) VALUES
  ('CCN(CC)c1ccc(/C=C2\SC(=S)NC2=O)c(OCc2ccc(Cl)cc2Cl)c1', '> 35%');

Report inhibition for `CCCC[C@@H](C(=O)O)N1C(=O)/C(=C/c2ccc(-c3ccncc3Cl)cc2)SC1=S` please. 97.1%

Moving on to the next compound: `O=C(O)[C@H](C1CCCCC1)N1C(=O)/C(=C/c2ccc(-c3ccccc3C(F)(F)F)cc2)SC1=S` 93%

# repeat for `O=C(O)[C@H](C1CCCCC1)N1C(=O)/C(=C/c2ccc(-c3cccc(C(F)(F)F)c3)cc2)SC1=S` 96.5%
